Below, each of the compounds is paired with its reported viability at 28.5 h, 10 µM value.
Experiment: in vitro
Conditions: human, hela cells, % viability

{"compound": "CC1(C)[C@H]2CC/C(=N/O)[C@]1(C)NC2=O", "viability at 28.5 h, 10 µM": "84.8%"}
{"compound": "Cc1nn(CCC#N)c(C)c1[C@@H]1C=C[C@@H](NC(=O)Nc2ccc(Cl)cc2)C1", "viability at 28.5 h, 10 µM": "95.8%"}
{"compound": "CC(=O)Nc1nnc(SCC(=O)NCc2ccc3c(c2)OCO3)s1", "viability at 28.5 h, 10 µM": "94%"}
{"compound": "CC(C)(C)C(=O)N1CCC2(CC1)Nc1cccnc1-n1cccc12", "viability at 28.5 h, 10 µM": "95.6%"}
{"compound": "COc1ccc(Cl)cc1NC(=O)CN(C1CCCCC1)S(C)(=O)=O", "viability at 28.5 h, 10 µM": "105%"}
{"compound": "CCOc1cccc(CNc2ccc(N3CCOCC3)c(C(=O)O)c2)c1", "viability at 28.5 h, 10 µM": "92.9%"}
{"compound": "Cc1cc(C)n(CC(=O)NCC2CCCO2)c(=O)c1C#N (stereo not shown)", "viability at 28.5 h, 10 µM": "85.4%"}
{"compound": "COc1ccc(-c2cnc3[nH]c(=O)n(C4CC4)c3n2)cc1", "viability at 28.5 h, 10 µM": "86.9%"}
{"compound": "O=C(Oc1cccc2cccnc12)c1cccc(S(=O)(=O)Oc2cccc3cccnc23)c1", "viability at 28.5 h, 10 µM": "58.4%"}
{"compound": "CC(Sc1nnc2[nH]c3ccccc3n12)C(=O)O (stereo not shown)", "viability at 28.5 h, 10 µM": "99.7%"}
{"compound": "CCOc1cc(/C=N/NC(=O)CSc2nc(C)cc(C)n2)ccc1O", "viability at 28.5 h, 10 µM": "96.1%"}
{"compound": "Clc1ccc(OCCCn2ccnc2)c(CN2CCSCC2)c1", "viability at 28.5 h, 10 µM": "104%"}
{"compound": "COc1ccc(C(=O)N2CCN(Cc3cccnc3)CC2)cc1OC", "viability at 28.5 h, 10 µM": "99.3%"}
{"compound": "O=C(Nc1cccc(OCc2ccccc2)c1)c1cnc(-c2ccc(Cl)cc2)c(-c2ccco2)c1", "viability at 28.5 h, 10 µM": "93.9%"}
{"compound": "Cn1/c(=N\\C(=O)c2cccs2)sc2cc(Br)ccc21", "viability at 28.5 h, 10 µM": "102%"}
{"compound": "COc1ccc(/C=C(/NC(=O)c2cccc(Cl)c2)C(=O)Nc2ccccc2)cc1", "viability at 28.5 h, 10 µM": "107%"}
{"compound": "CC(Sc1nc(N(C)C)nc(N2CCOCC2)n1)C(=O)Nc1ccc(Cl)c(Cl)c1 (stereo not shown)", "viability at 28.5 h, 10 µM": "110%"}
{"compound": "Cc1c(C(=O)N2CCN(C3CCN(C)CC3)CC2)nnn1-c1cccc(C(F)(F)F)c1", "viability at 28.5 h, 10 µM": "94.2%"}
{"compound": "O=C1CN(Cc2ccc3ccccc3n2)CCN1C1CCCC1", "viability at 28.5 h, 10 µM": "88.6%"}

====

Experiment: in vitro
Details: human, hela cells, % viability

{"molecule": "O=C(Cn1cnnn1)N1CCN(Cc2ccccc2)CC1", "viability at 28.5 h, 10 µM / %": 85.5}
{"molecule": "Cc1cc(O)ccc1Nc1cc(-c2ccc3c(c2)OCO3)ncn1", "viability at 28.5 h, 10 µM / %": 92.6}
{"molecule": "COc1ccc(CNc2cncc(-c3ccc(C(C)C)cc3)n2)cc1", "viability at 28.5 h, 10 µM / %": 119}
{"molecule": "CC(=O)N1CCc2c(sc3nc(N)c(C(=O)NCCc4ccc(F)cc4)c(C(F)(F)F)c23)C1", "viability at 28.5 h, 10 µM / %": 94.4}
{"molecule": "O=C(NC1CCCN(CC(F)(F)F)C1=O)c1cnc(-c2ccncc2)s1 (centres unmarked)", "viability at 28.5 h, 10 µM / %": 82.6}

====

Test system: CTL2-GFP (C. trachomatis L2/434/Bu, GFP-expressing)
Construct: L2/434/Bu, GFP-expressing
Test: microbe, parasite or virus in culture
Design: C. trachomatis growth in HeLa, dose-response, mean of bulk GFP fluorescence and imaged total inclusion area
Settings: Chlamydia trachomatis, HeLa, 28.5 h; mean of GFP and inclusion area
Entries whose IC50 is below 1 µM take true (1); entries at or above 1 µM take false (0).

{"molecule": "O=C(N/N=C/c1ccc(Sc2cccc3cccnc23)o1)c1cccc(F)c1 [c10e]", "category.label": "true (1)"}
{"molecule": "FC(F)(F)c1ccc(N2CCNCC2)nc1OCc1ccc2c(c1)OCCO2 [c46e]", "category.label": "false (0)"}
{"molecule": "O=[N+]([O-])c1ccc(-n2cnc3ccccc32)c([N+](=O)[O-])c1 [c41e]", "category.label": "false (0)"}
{"molecule": "FC(F)(F)CCN1CCC2(CC1)NCCc1c2[nH]c2ccc(Cl)cc12 [c34e]", "category.label": "false (0)"}
{"molecule": "CCOc1ccsc1C(=O)NC1Cc2ccccc2C1 [c16e]", "category.label": "false (0)"}

====

Assay: in vitro
Conditions: human, hela cells, % viability
endpoint.name: viability at 28.5 h, 10 µM (%)

{"molecule": "COCCNc1ncnc2sc3c(c12)CCCC3", "endpoint.name": "viability at 28.5 h, 10 µM", "output.unit": "%", "assay.result": 98.4}
{"molecule": "Cc1ccc2nc(Nc3nc(C)cc(C)n3)[nH]c2c1", "endpoint.name": "viability at 28.5 h, 10 µM", "output.unit": "%", "assay.result": 97.9}
{"molecule": "COc1ccc([C@@]23CC[C@@H](NC(=O)Nc4ccc(Cl)cc4[N+](=O)[O-])C[C@@H]2N(C)CC3)cc1OC [CBK036474T]", "endpoint.name": "viability at 28.5 h, 10 µM", "output.unit": "%", "assay.result": 84.1}
{"molecule": "CC(=O)Nc1ccc(-n2cc(CN3CCC(Sc4ccccn4)CC3)nn2)cc1", "endpoint.name": "viability at 28.5 h, 10 µM", "output.unit": "%", "assay.result": 99.5}
{"molecule": "COCCNC(=O)c1cc(-c2ccccc2C)nc2c1cnn2C(C)C", "endpoint.name": "viability at 28.5 h, 10 µM", "output.unit": "%", "assay.result": 111}
{"molecule": "O=C(CCCOc1ccccc1)Nc1cccc(N2CCNCC2)c1 [CBK028290T]", "endpoint.name": "viability at 28.5 h, 10 µM", "output.unit": "%", "assay.result": 95.4}
{"molecule": "CCOC(=O)N1CCC(NS(=O)(=O)/C=C/c2ccccc2)CC1", "endpoint.name": "viability at 28.5 h, 10 µM", "output.unit": "%", "assay.result": 107}
{"molecule": "CC1(C)COC(=O)N1C1CCN(C(=O)CNC(=O)c2cccs2)CC1", "endpoint.name": "viability at 28.5 h, 10 µM", "output.unit": "%", "assay.result": 93.1}
{"molecule": "Cc1ccc2nc(-c3ccc(-c4ccc(C(C)C)cc4)o3)cc(C(=O)O)c2c1", "endpoint.name": "viability at 28.5 h, 10 µM", "output.unit": "%", "assay.result": 96.7}

====

# maps each entry to its viability at 28.5 h, 10 µM
Experiment: in vitro
Details: human, hela cells, % viability

{"compound": "CC(=O)Nc1ccc(CNC(=O)c2ccoc2C)cc1 [CBK305010]", "viability at 28.5 h, 10 µM (%)": 114}
{"compound": "CCCOC1CCCN(S(=O)(=O)c2cnc3ccsc3c2)C1 (stereo not drawn) [CBK306367]", "viability at 28.5 h, 10 µM (%)": 75.5}
{"compound": "O=C(CCCn1ccnc1)N1CCCC(c2cc3cccnc3[nH]2)C1 (stereo not drawn) [CBK284959]", "viability at 28.5 h, 10 µM (%)": 107}
{"compound": "Cc1cc(COC(=O)Nc2ccc3nc(C)ccc3c2)cc(C)n1 [CBK200127]", "viability at 28.5 h, 10 µM (%)": 90.5}
{"compound": "CC(=O)c1c(C(=O)O)[nH]c(C(=O)O)c1C [CBK263934]", "viability at 28.5 h, 10 µM (%)": 87.4}
{"compound": "O=C(CSCc1c(Cl)cccc1Cl)Nc1ccc(S(=O)(=O)N2CCOCC2)cc1 [CBK266276]", "viability at 28.5 h, 10 µM (%)": 109}
{"compound": "CCCC(=O)NC[C@H]1CC[C@H](c2nnc(-c3ccsc3)o2)CC1 [CBK283362]", "viability at 28.5 h, 10 µM (%)": 98.9}
{"compound": "Cc1cc(C(=O)Nc2ccccc2N2CCOCC2)c(C)o1 [CBK057243]", "viability at 28.5 h, 10 µM (%)": 111}
{"compound": "Cn1c(=O)n(-c2cccc(Cl)c2)c(=O)n1C [CBK116498]", "viability at 28.5 h, 10 µM (%)": 82.2}
{"compound": "O=C(CSc1nnc(-c2cccnc2)n1Cc1ccccc1)Nc1ccc(Br)cc1 [CBK267527]", "viability at 28.5 h, 10 µM (%)": 94.5}
{"compound": "CCN(CC)CC1CCCN(C(=O)Cn2ccc3ccc(F)cc32)C1 (stereo not drawn) [CBK282146]", "viability at 28.5 h, 10 µM (%)": 87.8}
{"compound": "O=C(COc1ccc(F)cc1)Nc1cccc2[nH]ccc12 [CBK159653]", "viability at 28.5 h, 10 µM (%)": 86}
{"compound": "O=C(CCn1cnc2ccccc21)N1CC[C@@H](c2ccccc2)[C@H](O)C1 [CBK283712]", "viability at 28.5 h, 10 µM (%)": 102}
{"compound": "Cc1noc(C)c1S(=O)(=O)Nc1cccc(C(=O)O)c1 [CBK038902]", "viability at 28.5 h, 10 µM (%)": 102}
{"compound": "CCc1nnc(SCC(=O)Nc2cccc(OC)c2)[nH]1 [CBK270226]", "viability at 28.5 h, 10 µM (%)": 93.7}
{"compound": "CC(=O)Nc1cccc(-n2nnnc2SCC2CCCCO2)c1 (stereo not drawn) [CBK305746]", "viability at 28.5 h, 10 µM (%)": 91.5}
{"compound": "OCn1nc(-c2ccc(Cl)cc2Cl)oc1=S [CBK288410]", "viability at 28.5 h, 10 µM (%)": 107}
{"compound": "Cc1ccccc1CNC(=O)CCc1c(C)nc2nc(N)nn2c1C [CBK304987]", "viability at 28.5 h, 10 µM (%)": 108}
{"compound": "Nc1ncc(-c2ccco2)nc1-c1ccc(C(=O)NCCO)cc1 [CBK064124]", "viability at 28.5 h, 10 µM (%)": 91.1}
{"compound": "O=C(O)CCC(=O)Nc1ccc(S(=O)(=O)Nc2ccc(I)cc2)cc1 [CBK264866]", "viability at 28.5 h, 10 µM (%)": 99.9}
{"compound": "CC(C)(C)C(=O)NCCN1CCC(O)(c2ccc(F)cc2)CC1 [CBK283262]", "viability at 28.5 h, 10 µM (%)": 92}
{"compound": "O=C(Nc1cccc(C(F)(F)F)c1)N1CCN(CCCCc2ccc(F)cc2)CC1 [CBK013363C]", "viability at 28.5 h, 10 µM (%)": 90.4}
{"compound": "CC(C)Nc1cncc(OCc2ccc(Cl)c(Cl)c2)n1 [CBK115653]", "viability at 28.5 h, 10 µM (%)": 87.5}
{"compound": "CC1(C)CC(=O)C2=C(C1)Nc1nn(-c3ccccc3)c(O)c1C2c1cccs1 (stereo not drawn) [CBK266333]", "viability at 28.5 h, 10 µM (%)": 94}
{"compound": "COCCOCCOc1ccccc1OCCOCCOC [CBK009636]", "viability at 28.5 h, 10 µM (%)": 89}
{"compound": "Cc1cccc(-c2n[nH]c(=S)n2CCC(=O)Nc2ccc(N3CCCC3=O)c(C)c2)c1 [CBK296733]", "viability at 28.5 h, 10 µM (%)": 89.1}
{"compound": "Cc1cccc(CN(Cc2ccccc2)C(=O)CCc2ccncc2)n1 [CBK282101]", "viability at 28.5 h, 10 µM (%)": 99.1}
{"compound": "COc1ccc(Cc2c(C)nc3c(C(=O)NCC4CCCO4)cnn3c2C)cc1 (stereo not drawn) [CBK162183]", "viability at 28.5 h, 10 µM (%)": 88.5}
{"compound": "Cc1nnsc1C(=O)N1CCN(c2cc(C(F)(F)F)ccn2)CC1 [CBK008467]", "viability at 28.5 h, 10 µM (%)": 86.4}
{"compound": "CC1Cc2cc(-c3cncn3CC(=O)NC(C)(C)C)ccc2N1C (stereo not drawn) [CBK281699]", "viability at 28.5 h, 10 µM (%)": 77.3}
{"compound": "Nc1ccc(-c2cncc(NCCc3ccccn3)n2)cc1 [CBK065632]", "viability at 28.5 h, 10 µM (%)": 103}
{"compound": "O=C1c2ccccc2C(=O)N1Cc1ccc(S(=O)(=O)NCc2ccc3c(c2)OCO3)cc1 [CBK264180]", "viability at 28.5 h, 10 µM (%)": 98.3}
{"compound": "C[C@@H](Cn1c(=O)oc2ccccc21)NC(=O)Cc1ccsc1 [CBK284535]", "viability at 28.5 h, 10 µM (%)": 96.9}
{"compound": "O=C(Nc1nnc(-c2ccccn2)o1)c1cc(Cl)ccc1Cl [CBK287429]", "viability at 28.5 h, 10 µM (%)": 96.9}
{"compound": "CNC(=O)c1ccc(-c2ccc(CNC(=O)C3(c4cccc(F)c4)CCCC3)cc2)nc1C [CBK286013]", "viability at 28.5 h, 10 µM (%)": 105}
{"compound": "COc1ccc(C(=O)N2CCC[C@H]3NC(=O)COc4ccccc4C(=O)N[C@@H]4CCOC[C@@H]4C/C=C/C[C@@H]32)cc1 [CBK292194]", "viability at 28.5 h, 10 µM (%)": 102}
{"compound": "O=C(Nc1cccc2cccnc12)c1ccc(Cl)c(Cl)c1 [CBK261318]", "viability at 28.5 h, 10 µM (%)": 91.5}
{"compound": "CN(C)C(=O)CSc1cnc2ccccc2n1 [CBK086626]", "viability at 28.5 h, 10 µM (%)": 86.3}
{"compound": "COC1C(O)C(CO)OC1n1cnc2cnc(N)nc21 (stereo not drawn) [CBK201290]", "viability at 28.5 h, 10 µM (%)": 84.9}

The reported numbers originate from paper PMC12040169.
